Target: Pro-neuregulin-1, membrane-bound isoform (Homo sapiens)
Experiment: NRG1 binders on small-molecule microarrays, primary screen, psychiatric disease protein project, biochemical, small-molecule microarray, fluorescence 635/667 (AID 1075);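 also: score combines 667 nm spot fluorescence with signal to noise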
Conditions: NRG1 binding, 635 nm fluorescence, higher = more signal
Class membership depends on composite z-score alone; the intervals are group A: < 0.09; group B: ≥ 0.09 and < 1; group C: ≥ 1

Study these solved cases before continuing.
- Compound: "CC(C)C(=C=CC[C@@H](O)c1ccc(OCCO)cc1)C[C@@H](O)COCc1ccccc1"
  Tgt: "Pro-neuregulin-1, membrane-bound isoform (Homo sapiens)"
  Group: "group A"
- Compound: "Oc1ccc2cc[n+](Cc3sc4ccccc4c3Cl)cc2c1"
  Tgt: "Pro-neuregulin-1, membrane-bound isoform (Homo sapiens)"
  Group: "group A"
- Compound: "COCCOC(=O)N1C(=O)[C@@]2(c3cc(C#CCNC(N)=O)ccc31)[C@H](C(=O)Nc1nc3ccccc3s1)[C@H]1C(=O)O[C@H](c3ccccc3)[C@H](c3ccccc3)N1[C@@H]2c1ccc(OCCO)cc1"
  Tgt: "Pro-neuregulin-1, membrane-bound isoform (Homo sapiens)"
  Group: "group B"
- Compound: "COC(=O)C(CC#Cc1ccc2c(c1)[C@]1(C(=O)N2)[C@H](c2ccc(OCCO)cc2)N2[C@H](c3ccccc3)[C@H](c3ccccc3)OC(=O)[C@H]2[C@@H]1C(=O)Nc1nc2ccccc2s1)C(=O)OC"
  Tgt: "Pro-neuregulin-1, membrane-bound isoform (Homo sapiens)"
  Group: "group C"
- Compound: "CCOC(=O)C1=CC[C@@H](c2ccccc2)N(S(=O)(=O)c2ccc(C)cc2)[C@H]1c1ccccc1C"
  Tgt: "Pro-neuregulin-1, membrane-bound isoform (Homo sapiens)"
  Group: "group B"

Query: The entry to classify is CCOC(=O)C[C@H]1[C@H](OC(=O)c2cc3ccccc3oc2=O)[C@@H](NC(=O)c2ccccc2)c2cc(OCCCO)ccc2N1C(=O)c1ccc2ccccc2n1 ; which class holds it?
Reply: group A

Query: The entry to classify is COc1ccc(-c2cc3c(c(-c4ccc(Oc5ccccc5)cc4)n2)[Si](C(C)C)(C(C)C)OC3)cn1 ; which class holds it?
Reply: group A

Query: The entry to classify is C=CCNC(=O)[C@@H]1[C@H]2C(=O)O[C@H](c3ccccc3)[C@H](c3ccccc3)N2[C@H](c2ccc(O)cc2)[C@@]12C(=O)N(C(=O)OCCOC)c1ccc(C#CCNC(N)=O)cc12 ; which class holds it?
Reply: group C

Query: The entry to classify is CC1CC/C=C\[C@H]2OC34C=CCN(C(C)(C)C)C(=O)[C@H]3N(CCO)C(=O)[C@@H]4C2C(=O)O1 (some centres not stated) ; which class holds it?
Reply: group A

Query: The entry to classify is O=C(c1ccccc1)N1C(=O)[C@]2(COC(c3ccc(OCCCO)cc3)=N2)Cc2ccccc21 ; which class holds it?
Reply: group C

Query: The entry to classify is COC(=O)C(CC#Cc1ccc2c(c1)[C@]1(C(=O)N2)[C@H](c2ccc(OCCO)cc2)N2[C@H](c3ccccc3)[C@H](c3ccccc3)OC(=O)[C@H]2[C@@H]1C(=O)N1CCc2cc(OC)c(OC)cc2C1)C(=O)OC ; which class holds it?
Reply: group C

Query: The entry to classify is COC(=O)[C@H](Cc1ccccc1)N[C@@H](/C=C/C1CC1)[C@H](O)Cc1ccccc1 ; which class holds it?
Reply: group A

Query: The entry to classify is COc1ccc(C#Cc2ccc3c(c2)[C@]2(C(=O)N3)[C@H](c3ccccc3OCCO)N3[C@H](c4ccccc4)[C@H](c4ccccc4)OC(=O)[C@H]3[C@@H]2C(=O)Nc2nc3ccccc3s2)cc1 ; which class holds it?
Reply: group B

Query: The entry to classify is COCCOC(=O)N1C(=O)[C@@]2(c3cc(C#CCCO)ccc31)[C@H](C(N)=O)[C@H]1C(=O)O[C@H](c3ccccc3)[C@H](c3ccccc3)N1[C@@H]2c1ccc(O)cc1 ; which class holds it?
Reply: group B

Query: The entry to classify is O=C1N[C@@H](Cc2ccccc2)C(=O)N2[C@@H]1C[C@@H](C(=O)O)[C@H]2c1cccc(OCCO)c1 ; which class holds it?
Reply: group C

Query: The entry to classify is COc1ccccc1CN1C(=O)c2ccccc2[C@@H](C(=O)NC2CC2)[C@@H]1c1ccc(CO)cc1 ; which class holds it?
Reply: group C

Query: The entry to classify is COC(=O)[C@@]1(Cc2ccc(OC)cc2)[C@H]2c3cc(C(=O)N4CCCC4)n(Cc4ccc(O)c(OC)c4)c3C[C@H]2CN1C(=O)c1ccccc1 ; which class holds it?
Reply: group C

Query: The entry to classify is COC(=O)[C@@]1(Cc2ccc(F)cc2)[C@H]2c3cc(C(=O)N4CCCC4)n(CCCNc4ncc(C(F)(F)F)cc4Cl)c3C[C@H]2CN1C(=O)c1ccccc1 ; which class holds it?
Reply: group C

Query: The entry to classify is CO[C@H]1O[C@H](CO)[C@@H](OC(=O)Nc2ccc(Oc3ccccc3)cc2)[C@H](OC(=O)Nc2ccc3c(c2)OCO3)[C@H]1OC(=O)Nc1ccc2c(c1)OCO2 ; which class holds it?
Reply: group C

Query: The entry to classify is CN(C)CCCCCCNC(=O)[C@H]1C[C@H]2C(=O)N[C@@H](CCCCN)C(=O)N2[C@H]1c1cccc(OCCO)c1 ; which class holds it?
Reply: group C

Query: The entry to classify is C=CCOC(=O)[C@H]1[C@@H]2C(=O)O[C@@H](c3ccccc3)[C@@H](c3ccccc3)N2[C@@H](c2ccc(OCCOC(=O)[C@H]3C[C@H]4C(=O)N[C@@H](CCCCNC(C)=O)C(=O)N4[C@H]3c3cccc(OCCO)c3)cc2)[C@]12C(=O)Nc1ccccc12 ; which class holds it?
Reply: group B

Query: The entry to classify is C=CCN1C(=O)[C@@]2(Cc3ccccc31)N=C(c1ccc(OCCCO)cc1)O[C@H]2c1ccccc1 ; which class holds it?
Reply: group C

Query: The entry to classify is CC(C)OC(=O)C=C1C[C@@H](c2ccccn2)O[C@@H](c2ccccn2)O1 ; which class holds it?
Reply: group A

Query: The entry to classify is CC1CC/C=C\[C@H]2OC34C=CCN(C(C)(C)C)C(=O)[C@H]3N(C(C)CO)C(=O)[C@@H]4C2C(=O)O1 (some centres not stated) ; which class holds it?
Reply: group A
